B1: NP_009172.2 (parent)
chain: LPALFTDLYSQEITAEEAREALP

# Variants of: B1
# PROTOCOL_TEXT: protein stability index of a GFP-peptide fusion (GPS, HEK-293T) (PSI 1-6); higher = more stable;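 further: lentivirally expressed fusion library, cells FACS-sorted into six equal-sized GFP/DsRed ratio bins, PSI computed from sequencing read fractions per bin weighted by bin number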
# EXPERIMENTAL_PARAMETERS: c terminus: native
Overview of reported protein stability index across a group of variants:
I only need the number, thanks.

E12Y : 3.07

**Q:** I'd like to know its protein stability index. The variant in question is `E20R`
**A:** 1.98

**Q:** Let us now turn to `E12P`
**A:** 3.77

**Q:** Lookup `A3T`
**A:** 2.56

**Q:** Request: `A18I`
**A:** 2.57

**Q:** `F5C` , same question.
**A:** 5.41

**Q:** Try the variant `P2R`
**A:** 2.28

**Q:** Record: `E17W`
**A:** 2.4

**Q:** And `Y9E` ?
**A:** 5.17

**Q:** Field entry: `Y9S`
**A:** 3.98

**Q:** Now consider `A15I` and answer again.
**A:** 2.76

**Q:** Let us now turn to `P23D`
**A:** 5.15

**Q:** # iterate: `L4Q`
**A:** 3.62

**Q:** Would you kindly repeat that for `E12Q` ?
**A:** 2.69

**Q:** Please give the result for `R19Y` too.
**A:** 2.53

Data provenance: the supplement of paper PMC10567573
